Data origin: patent US10570096B2

system: JAK1 (Homo sapiens)
Construct: GST-fusions of the active kinase domains (GST-JAK1 (866-1154)); host or cells: insect cells
Sequence (P23458 866-1154): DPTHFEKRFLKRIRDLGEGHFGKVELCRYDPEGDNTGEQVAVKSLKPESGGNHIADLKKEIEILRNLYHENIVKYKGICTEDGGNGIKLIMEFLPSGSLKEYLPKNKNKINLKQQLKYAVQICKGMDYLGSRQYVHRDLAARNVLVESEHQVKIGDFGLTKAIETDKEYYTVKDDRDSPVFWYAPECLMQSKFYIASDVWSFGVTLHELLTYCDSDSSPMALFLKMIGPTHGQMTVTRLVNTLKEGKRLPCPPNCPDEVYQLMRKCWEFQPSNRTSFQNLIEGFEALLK
assay notes: Enzymatic JAK assay (Caliper mobility shift), JAK1
Format: biochemical
test conditions: GST-JAK1 (866-1154) kinase domain, 16 nM enzyme, 70 μM ATP (KmATP), 30° C., 60 minutes
assay endpoint: IC50 (nM)

1. NC(=O)c1cnc(Nc2ccccn2)cc1Nc1ccccc1Cl [Example 1]: 18
2. Cc1cccc(Nc2cc(Nc3ccccc3Cl)c(C(N)=O)cn2)n1 [Example 2]: 12

====

system: Tyk2 (Homo sapiens, UniProt P29597)
Sequence (P29597 888-1187): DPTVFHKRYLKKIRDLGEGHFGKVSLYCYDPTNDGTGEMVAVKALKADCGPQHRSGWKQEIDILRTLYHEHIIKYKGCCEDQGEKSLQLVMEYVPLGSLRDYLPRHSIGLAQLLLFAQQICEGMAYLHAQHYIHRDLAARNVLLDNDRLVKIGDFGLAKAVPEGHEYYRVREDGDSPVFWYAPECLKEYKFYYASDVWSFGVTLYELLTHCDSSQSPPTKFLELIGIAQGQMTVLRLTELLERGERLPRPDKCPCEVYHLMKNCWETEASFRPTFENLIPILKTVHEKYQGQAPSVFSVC
pIC50: −log10 of the molar value.
assay endpoint: pIC50

1) Cc1cccc(Nc2cc(Nc3ccccc3Cl)c(C(N)=O)cn2)n1: 7.62

====

Entries and their measured pIC50 follow.
system: JAK2 (Homo sapiens)
Construct: GST-JAK2 (808-1132); host or cells: insect cells
Sequence (O60674 808-1132): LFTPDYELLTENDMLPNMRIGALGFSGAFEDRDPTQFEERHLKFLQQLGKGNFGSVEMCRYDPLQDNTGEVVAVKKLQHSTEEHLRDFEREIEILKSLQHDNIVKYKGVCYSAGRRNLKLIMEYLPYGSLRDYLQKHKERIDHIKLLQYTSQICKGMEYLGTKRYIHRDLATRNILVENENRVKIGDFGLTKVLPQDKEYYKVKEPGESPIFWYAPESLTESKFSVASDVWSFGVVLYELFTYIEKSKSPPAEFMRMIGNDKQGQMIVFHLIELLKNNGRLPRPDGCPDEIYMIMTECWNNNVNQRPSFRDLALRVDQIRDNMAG
assay notes: Enzymatic JAK assay (Caliper mobility shift), JAK2
Assay type: biochemical
test conditions: GST-JAK2 (808-1132) kinase domain, 1.8 nM enzyme, 20 μM ATP (KmATP), 30° C., 60 minutes
pIC50: −log10 of the molar value.
assay endpoint: pIC50

1) NC(=O)c1cnc(Nc2ccccn2)cc1Nc1ccccc1Cl [Example 1]: 7.85
2) Cc1cccc(Nc2cc(Nc3ccccc3Cl)c(C(N)=O)cn2)n1 [Example 2]: 7.60
